- ASSAY_COMMENT: amyloid nucleation score (Sup35N fusion, yeast selection) (log enrichment); library NNK1; higher = more nucleation; inactive = no reads after selection;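 note: zero at mode of non-aggregating sequences after 7 days selection at 30°C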

- SEQUENCE_CHAIN: "SLSRCMIYDYR"
  amyloid nucleation score: "inactive"
- SEQUENCE_CHAIN: "KHCTRFRVRRMYYDVTKILL"
  amyloid nucleation score: "inactive"
- SEQUENCE_CHAIN: "VDLLFDTNCNSF"
  amyloid nucleation score: "inactive"

====

- ASSAY_COMMENT: amyloid nucleation score (Sup35N fusion, yeast selection) (log enrichment); library NNK3; higher = more nucleation; inactive = no reads after selection

- SEQUENCE_CHAIN: "LCVPTSDRELGYRWFRAEWH"
  amyloid nucleation score: "inactive"
- SEQUENCE_CHAIN: "TCVWRHAWQSGAHRVVRLAW"
  amyloid nucleation score: "inactive"
- SEQUENCE_CHAIN: "NLIWTVHLVVTSVISDLCVG"
  amyloid nucleation score: "inactive"
- SEQUENCE_CHAIN: "SANYNSNFR"
  amyloid nucleation score: "inactive"
- SEQUENCE_CHAIN: "LLYYFYTFTQGR"
  amyloid nucleation score: -0.148

====

- ASSAY_COMMENT: amyloid nucleation score (Sup35N fusion, yeast selection) (log enrichment); library NNK2; higher = more nucleation; inactive = no reads after selection

- SEQUENCE_CHAIN: "KRGSAEFNQLDHYECTRYEC"
  amyloid nucleation score: "inactive"
- SEQUENCE_CHAIN: "LIWVRGNEGRFGGRLVLVVE"
  amyloid nucleation score: "inactive"
- SEQUENCE_CHAIN: "NTRCGCWLVSAML"
  amyloid nucleation score: 0.196

====

- ASSAY_COMMENT: amyloid nucleation score (Sup35N fusion, yeast selection) (log enrichment); library NNK3; higher = more nucleation; inactive = no reads after selection
MEASUREMENT_NAME: amyloid nucleation score

- SUBSTANCE: "RVFYCNL"
  MEASUREMENT_NAME: "amyloid nucleation score"
  MEASURED_VALUE: 1.6
- SUBSTANCE: "WLFYLT"
  MEASUREMENT_NAME: "amyloid nucleation score"
  MEASURED_VALUE: "inactive"
- SUBSTANCE: "PRVIHWSLALNSSHCNFVFF"
  MEASUREMENT_NAME: "amyloid nucleation score"
  MEASURED_VALUE: 2.67
- SUBSTANCE: "FTSMFVLIVILSQMLSLQFR"
  MEASUREMENT_NAME: "amyloid nucleation score"
  MEASURED_VALUE: "inactive"
- SUBSTANCE: "MTPGFCLPK"
  MEASUREMENT_NAME: "amyloid nucleation score"
  MEASURED_VALUE: "inactive"
- SUBSTANCE: "VYWTEWTCMDIDGIQFLVNV"
  MEASUREMENT_NAME: "amyloid nucleation score"
  MEASURED_VALUE: "inactive"
- SUBSTANCE: "LSLMSSVGCRCSVFSWLYVN"
  MEASUREMENT_NAME: "amyloid nucleation score"
  MEASURED_VALUE: "inactive"
- SUBSTANCE: "KVSMYRVVWCPASFGVIIVA"
  MEASUREMENT_NAME: "amyloid nucleation score"
  MEASURED_VALUE: "inactive"
- SUBSTANCE: "GNSLWKSPCYL"
  MEASUREMENT_NAME: "amyloid nucleation score"
  MEASURED_VALUE: "inactive"
- SUBSTANCE: "TMSGFYYNSFIRYNLAL"
  MEASUREMENT_NAME: "amyloid nucleation score"
  MEASURED_VALUE: "inactive"
- SUBSTANCE: "SLMLGYETFFMPCGQDMAKW"
  MEASUREMENT_NAME: "amyloid nucleation score"
  MEASURED_VALUE: "inactive"
- SUBSTANCE: "LKHVWLSDRALGSSLTCMAG"
  MEASUREMENT_NAME: "amyloid nucleation score"
  MEASURED_VALUE: "inactive"
- SUBSTANCE: "YRQRWSRLCAGQSLYNCGKC"
  MEASUREMENT_NAME: "amyloid nucleation score"
  MEASURED_VALUE: "inactive"
- SUBSTANCE: "GRTVTVWMFASVRRGVTGYV"
  MEASUREMENT_NAME: "amyloid nucleation score"
  MEASURED_VALUE: "inactive"
- SUBSTANCE: "IEDEFEAMSHCLECRNFRKL"
  MEASUREMENT_NAME: "amyloid nucleation score"
  MEASURED_VALUE: "inactive"
- SUBSTANCE: "TLFDRFWVLWNEKWESSGKY"
  MEASUREMENT_NAME: "amyloid nucleation score"
  MEASURED_VALUE: "inactive"
- SUBSTANCE: "ASILRTKMLVCKGGKILQLQ"
  MEASUREMENT_NAME: "amyloid nucleation score"
  MEASURED_VALUE: "inactive"
- SUBSTANCE: "VLMGRCLPRWLLYEELLVYV"
  MEASUREMENT_NAME: "amyloid nucleation score"
  MEASURED_VALUE: "inactive"
- SUBSTANCE: "TMVTTNEIT"
  MEASUREMENT_NAME: "amyloid nucleation score"
  MEASURED_VALUE: 0.092
- SUBSTANCE: "TKGTKDRPPYTVVRLQYGNS"
  MEASUREMENT_NAME: "amyloid nucleation score"
  MEASURED_VALUE: "inactive"
- SUBSTANCE: "LSGANYLLIRNEGM"
  MEASUREMENT_NAME: "amyloid nucleation score"
  MEASURED_VALUE: "inactive"
- SUBSTANCE: "MFKITACIFNIAYSSWFFST"
  MEASUREMENT_NAME: "amyloid nucleation score"
  MEASURED_VALUE: "inactive"
- SUBSTANCE: "RSLLGGSKAVYTWDWQPAII"
  MEASUREMENT_NAME: "amyloid nucleation score"
  MEASURED_VALUE: "inactive"
- SUBSTANCE: "IWWNIYCFTVTSSVD"
  MEASUREMENT_NAME: "amyloid nucleation score"
  MEASURED_VALUE: 2.21
- SUBSTANCE: "NSGAWLSMEMMPCRMSVYAC"
  MEASUREMENT_NAME: "amyloid nucleation score"
  MEASURED_VALUE: "inactive"
- SUBSTANCE: "GATVLLSNFSVCPHMARSSG"
  MEASUREMENT_NAME: "amyloid nucleation score"
  MEASURED_VALUE: "inactive"
- SUBSTANCE: "VWVLSA"
  MEASUREMENT_NAME: "amyloid nucleation score"
  MEASURED_VALUE: "inactive"
- SUBSTANCE: "ELLWNLRGNFDIDLGSFIRT"
  MEASUREMENT_NAME: "amyloid nucleation score"
  MEASURED_VALUE: "inactive"
- SUBSTANCE: "SSVGMARAYL"
  MEASUREMENT_NAME: "amyloid nucleation score"
  MEASURED_VALUE: -1.17
- SUBSTANCE: "IMKACGDK"
  MEASUREMENT_NAME: "amyloid nucleation score"
  MEASURED_VALUE: "inactive"
- SUBSTANCE: "YSRTDSQGMTNEMVNLGVDV"
  MEASUREMENT_NAME: "amyloid nucleation score"
  MEASURED_VALUE: "inactive"
- SUBSTANCE: "VDTKFSISYTGKTC"
  MEASUREMENT_NAME: "amyloid nucleation score"
  MEASURED_VALUE: "inactive"
- SUBSTANCE: "YGSMMHWKSLCLSSIC"
  MEASUREMENT_NAME: "amyloid nucleation score"
  MEASURED_VALUE: "inactive"
- SUBSTANCE: "LFVIVMSFLFGWFFYRNNYA"
  MEASUREMENT_NAME: "amyloid nucleation score"
  MEASURED_VALUE: 1.84
- SUBSTANCE: "HAWTQPNHI"
  MEASUREMENT_NAME: "amyloid nucleation score"
  MEASURED_VALUE: "inactive"

====

- ASSAY_COMMENT: amyloid nucleation score (Sup35N fusion, yeast selection) (log enrichment); library NNK3; higher = more nucleation; inactive = no reads after selection

- SUBSTANCE: "SWVRMYIGEFLVSRCQMWST"
  amyloid nucleation score: "inactive"
- SUBSTANCE: "AFMNWVARRKTRWGGLYGGN"
  amyloid nucleation score: "inactive"
- SUBSTANCE: "GPCFEVAVYYDATEMGKQSI"
  amyloid nucleation score: -0.507
- SUBSTANCE: "IRQVLCCESLRLGSYMQINT"
  amyloid nucleation score: "inactive"
- SUBSTANCE: "RFVTRCREDSVTLKHG"
  amyloid nucleation score: "inactive"
- SUBSTANCE: "PFGGRR"
  amyloid nucleation score: 0.013
- SUBSTANCE: "SFSRPVHSWAGHY"
  amyloid nucleation score: "inactive"
- SUBSTANCE: "TEPIWWEFGCKYHGYISARS"
  amyloid nucleation score: "inactive"
- SUBSTANCE: "MTCTVRSEVYIHFNFVAIKF"
  amyloid nucleation score: 0.299
